src = paper PMC9482650

Target: T1, MPDZ_7, O75970
T1 sequence (O75970 1146-1253, limits assumed, looked up): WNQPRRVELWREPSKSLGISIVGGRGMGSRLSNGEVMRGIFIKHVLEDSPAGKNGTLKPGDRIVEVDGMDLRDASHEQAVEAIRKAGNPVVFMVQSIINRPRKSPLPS
Assay: holdup assay
Design: key: below the threshold = too weak to quantify, mostly under pKd 3.1 to 4
Details: plain residues with an end cap or a label only (N-terminal biotin on a linker: ttds)
The following binders are listed with their measured pKd values.
METRIC: pKd

{"columns": ["BINDER", "OBSERVED_RESULT"],
 "data": [
  ["SSRTRRETQL [HPV16-E6, P03126]", 4.22],
  ["STLTIFETAL [ABCC4, O15439]", 5.01],
  ["SVWLRKETRV [CYSLTR2, Q9NS75]", 4.33]
]}
